Target: T1, RSV postfusion F (postF), subtype A (respiratory syncytial virus, subtype A, UniProt P03420 26-513)
T1 construct: also called F ΔFP; Postfusion subtype A
Assay: BLI, IgG

{"binder": "ADI-21054 (antibody, V domains shown) VH: QVQLVESGGGVVQPGRSLRLSCAASGFSFSNYGMHWVRQAPGKGLEWVVGISFDGSYIFHGGSVTGRFNISRDNSKNTLYLQVNSVRAEDTAVYYCARDPQYYDDWSGYSGLLHYYLYMDVWGKGTTVTVSS VL: DIQLTQSPSTLSASVGDRVTITCRASQSIGTSLAWYQQIPGKAPKLLIYRASSLESGVPSRFSGGGSGTQFTLTISSLQPDDFATYYCQQYNNYSPTFGQGTKLEIK", "Kd": "0.372 nM"}
{"binder": "ADI-21038 (antibody, V domains shown) VH: QVQLVQSGAEVKKPGESLKISCQGFGFSFTSYWIGWVRQTPGKGLEWMGTIYPGDSETRKSPSIQGQVTFSADRSISTAYLQWSGLTASDTAVYYCARLKGGWGTTMAGIRDYFYYGLDVWGQGTTVTVSS VL: EIVLTQSPGTLSLSPGERATLSCRASQSVSSSYLAWYQQKPGQAPRLLIYGASSRATGIPDRFTGSGSGTDFTLTISRLEPEDFAVYYCQQYATSLGGFTFGPGTKVDIK", "Kd": "1.45 nM"}
{"binder": "ADI-14593 (antibody, V domains shown) VH: QVQLVQSGAEVKKPGESLKISCKGSGYSFSSYWVAWVRQMPGKGLEWMGIIYPADSDTRYSPSFQGQVTISADKSDSTAYLQWGSLKASDTAMYYCARSLYGSGDYFDYWGQGTLVTVSS VL: NFMLTQPHSVSESPGRTVIISCTRSSGSIATNYVQWYQQRPGSAPTTVIYEDNQRPSGVPDRFSGSIDSSSNSASLTISGLKTEDEADYYCQSYGSGDVVFGGGTKVTVL", "Kd": "0.161 nM"}
{"binder": "ADI-21002 (antibody, V domains shown) VH: QVQLVESGPGLVKPSGTLSLTCAVSGDSINSGNWWNWVRQAPGKGLEWIGEIYHRGTSNYNPSLKSRVTISVDQSKNQFSLKVTSLTAADTAIYYCARARGYSSGPSYYYYLDVWGKGTLVTVSS VL: EIVMTQSPSSLSASVGDRVTISCRASQSISTYLNWYQQKPGKAPKVIIYGASNLQSGVPSRFSGSGSGTDFTLTISSLQPEDFATYYCQKSFNPCVFGQGTKVDIK", "Kd": "0.214 nM"}
{"binder": "ADI-21046 (antibody, V domains shown) VH: EVQLVESGAEAKKPGESLRISCTVSGYSFSKYWVGWVRQTPGKGLEWMGIIDPTDSDTRYSPSFQGQVTISVDNSINTAYLQWSSLKASDTAIYYCARRGQAKCVGNCPRDFMDVWGKGTTVTVSS VL: SYVLTQPPSVSGAPGQRVTISCAGSSSNIGAGYEVHWYQQLPGTAPKLLIYANRNRPSGVPDRFSGSRSGTSASLAISGLQAEDEADYYCQSYDNNLSGSWVFGGGTKLTVL", "Kd": "0.187 nM"}
